Reported refractive index values for a set of molecules
measurement_notes: refractive index (Na D-line) (dimensionless)
recorded_conditions: 343.15 K; 101.33 kPa; Liquid; Standard Abbe refractometry
Numbers after ± are expanded uncertainties.

{"columns": ["molecule", "refractive index"],
 "data": [
  ["CCn1cc[n+](C)c1.N#CN=C=[N-] [1-ethyl-3-methylimidazolium dicyanamide]", "1.49865 ± 0.00065"]
]}

// returns reported refractive index for input CCn1cc[n+](C)c1.N#C[S-] [1-ethyl-3-methylimidazolium thiocyanate]
1.53831 ± 0.00063

Now try CCn1cc[n+](C)c1.CS(=O)(=O)[O-] [1-ethyl-3-methylimidazolium methanesulfonate] .
1.48367 ± 0.00063

Now try CCn1cc[n+](C)c1.F[B-](F)(F)F [1-ethyl-3-methylimidazolium tetrafluoroborate] .
1.40093 ± 0.00061

---

measurement_notes: refractive index (Na D-line) (dimensionless)
recorded_conditions: 303.15 K; 101.33 kPa; Liquid; Standard Abbe refractometry
measurement_label: refractive index
Please respond with just the number, no unit label.

Solved cases below.
{"columns": ["molecule", "measurement_label", "observed_result"],
 "data": [
  ["CCn1cc[n+](C)c1.N#C[S-] [1-ethyl-3-methylimidazolium thiocyanate]", "refractive index", 1.54999],
  ["CCn1cc[n+](C)c1.N#CN=C=[N-] [1-ethyl-3-methylimidazolium dicyanamide]", "refractive index", 1.51121],
  ["CCn1cc[n+](C)c1.N#C[B-](C#N)(C#N)C#N [1-ethyl-3-methylimidazolium tetracyanoborate]", "refractive index", 1.44592]
]}

// returns reported refractive index for input CCn1cc[n+](C)c1.O=S(=O)([O-])O [1-ethyl-3-methylimidazolium hydrogen sulfate]
1.49601

Now try CCn1cc[n+](C)c1.F[B-](F)(F)F [1-ethyl-3-methylimidazolium tetrafluoroborate] .
1.41055

---

recorded_conditions: 318.15 K; 101.33 kPa; Liquid; Vibrating tube method
measurement_label: mass density (kg/m3)
Write it as a number; the unit kg/m3 goes unstated.

Solved cases below.
{"columns": ["compound", "unit", "observed_result"],
 "data": [
  ["CCn1cc[n+](C)c1.N#C[B-](C#N)(C#N)C#N [1-ethyl-3-methylimidazolium tetracyanoborate]", "kg/m3", 1013],
  ["CCn1cc[n+](C)c1.O=S(=O)([O-])O [1-ethyl-3-methylimidazolium hydrogen sulfate]", "kg/m3", 1354.6],
  ["CCC[N+]1(C)CCCC1.O=S(=O)([N-]S(=O)(=O)C(F)(F)F)C(F)(F)F", "kg/m3", 1409.3],
  ["CCn1cc[n+](C)c1.N#CN=C=[N-] [1-ethyl-3-methylimidazolium dicyanamide]", "kg/m3", 1088],
  ["CCOS(=O)(=O)[O-].CCn1cc[n+](C)c1 [1-ethyl-3-methylimidazolium ethyl sulfate]", "kg/m3", 1224.3]
]}

Please find the next compound below.
// returns reported mass density for input CCn1cc[n+](C)c1.CS(=O)(=O)[O-] [1-ethyl-3-methylimidazolium methanesulfonate]
1228.2

---

measurement_notes: refractive index (Na D-line) (dimensionless)
recorded_conditions: 313.15 K; 101.33 kPa; Liquid; Standard Abbe refractometry
Reported refractive index values for a set of compounds
Please respond with just the number, no unit label.

{"columns": ["compound", "measurement_label", "observed_result"],
 "data": [
  ["CCn1cc[n+](C)c1.N#C[B-](C#N)(C#N)C#N [1-ethyl-3-methylimidazolium tetracyanoborate]", "refractive index", 1.44252],
  ["CCn1cc[n+](C)c1.O=S(=O)([N-]S(=O)(=O)C(F)(F)F)C(F)(F)F", "refractive index", 1.41881],
  ["CCC[N+]1(C)CCCC1.O=S(=O)([N-]S(=O)(=O)C(F)(F)F)C(F)(F)F", "refractive index", 1.41656],
  ["CCn1cc[n+](C)c1.CS(=O)(=O)[O-] [1-ethyl-3-methylimidazolium methanesulfonate]", "refractive index", 1.49172],
  ["CCn1cc[n+](C)c1.F[B-](F)(F)F [1-ethyl-3-methylimidazolium tetrafluoroborate]", "refractive index", 1.4081]
]}

// returns reported refractive index for input CCn1cc[n+](C)c1.N#CN=C=[N-] [1-ethyl-3-methylimidazolium dicyanamide]
1.50808

Now try CCn1cc[n+](C)c1.O=S(=O)([O-])O [1-ethyl-3-methylimidazolium hydrogen sulfate] .
1.49379

Now try CCOS(=O)(=O)[O-].CCn1cc[n+](C)c1 [1-ethyl-3-methylimidazolium ethyl sulfate] .
1.47528

Now try CCCCn1cc[n+](C)c1.O=S(=O)([N-]S(=O)(=O)C(F)(F)C(F)(F)C(F)(F)C(F)(F)F)C(F)(F)C(F)(F)C(F)(F)C(F)(F)F .
1.38367

Now try CCn1cc[n+](C)c1.N#C[S-] [1-ethyl-3-methylimidazolium thiocyanate] .
1.54702

---

measurement_notes: refractive index (Na D-line) (dimensionless)
recorded_conditions: 353.15 K; 101.33 kPa; Liquid; Standard Abbe refractometry
Reported refractive index values for a set of compounds
Please respond with just the number, no unit label.

{"columns": ["compound", "refractive index"],
 "data": [
  ["CCCCn1cc[n+](C)c1.O=S(=O)([N-]S(=O)(=O)C(F)(F)C(F)(F)C(F)(F)C(F)(F)F)C(F)(F)C(F)(F)C(F)(F)C(F)(F)F", 1.37206],
  ["CCOS(=O)(=O)[O-].CCn1cc[n+](C)c1 [1-ethyl-3-methylimidazolium ethyl sulfate]", 1.46468],
  ["CCn1cc[n+](C)c1.O=S(=O)([N-]S(=O)(=O)C(F)(F)F)C(F)(F)F", 1.4076]
]}

// returns reported refractive index for input CCn1cc[n+](C)c1.N#C[B-](C#N)(C#N)C#N [1-ethyl-3-methylimidazolium tetracyanoborate]
1.42922

---

recorded_conditions: 353.15 K; 101.33 kPa; Liquid; Vibrating tube method
Reported mass density values for a set of molecules
Write it as a number; the unit kg/m3 goes unstated.

{"columns": ["molecule", "unit", "mass density"],
 "data": [
  ["CCn1cc[n+](C)c1.O=S(=O)([O-])O [1-ethyl-3-methylimidazolium hydrogen sulfate]", "kg/m3", 1333.4],
  ["CCn1cc[n+](C)c1.N#C[S-] [1-ethyl-3-methylimidazolium thiocyanate]", "kg/m3", 1082.6],
  ["CCCCn1cc[n+](C)c1.O=S(=O)([N-]S(=O)(=O)C(F)(F)C(F)(F)C(F)(F)C(F)(F)F)C(F)(F)C(F)(F)C(F)(F)C(F)(F)F", "kg/m3", 1546.8]
]}

// returns reported mass density for input CCn1cc[n+](C)c1.F[B-](F)(F)F [1-ethyl-3-methylimidazolium tetrafluoroborate]
1239.2

Now try CCOS(=O)(=O)[O-].CCn1cc[n+](C)c1 [1-ethyl-3-methylimidazolium ethyl sulfate] .
1200.9

Now try CCn1cc[n+](C)c1.CS(=O)(=O)[O-] [1-ethyl-3-methylimidazolium methanesulfonate] .
1204.8

Now try CCn1cc[n+](C)c1.N#CN=C=[N-] [1-ethyl-3-methylimidazolium dicyanamide] .
1065.8

Now try CCn1cc[n+](C)c1.N#C[B-](C#N)(C#N)C#N [1-ethyl-3-methylimidazolium tetracyanoborate] .
986

Now try CCC[N+]1(C)CCCC1.O=S(=O)([N-]S(=O)(=O)C(F)(F)F)C(F)(F)F .
1378.6

Now try CCn1cc[n+](C)c1.O=S(=O)([N-]S(=O)(=O)C(F)(F)F)C(F)(F)F .
1463.9

---

Reported mass density values for a set of compounds
recorded_conditions: 293.15 K; 101.33 kPa; Liquid; Vibrating tube method
Write it as a number; the unit kg/m3 goes unstated.

Solved cases below.
{"columns": ["compound", "unit", "mass density"],
 "data": [
  ["CCC[N+]1(C)CCCC1.O=S(=O)([N-]S(=O)(=O)C(F)(F)F)C(F)(F)F", "kg/m3", 1431.9],
  ["CCn1cc[n+](C)c1.N#C[B-](C#N)(C#N)C#N [1-ethyl-3-methylimidazolium tetracyanoborate]", "kg/m3", 1032.9],
  ["CCn1cc[n+](C)c1.O=S(=O)([N-]S(=O)(=O)C(F)(F)F)C(F)(F)F", "kg/m3", 1523.6],
  ["CCn1cc[n+](C)c1.N#C[S-] [1-ethyl-3-methylimidazolium thiocyanate]", "kg/m3", 1118.6]
]}

// returns reported mass density for input CCOS(=O)(=O)[O-].CCn1cc[n+](C)c1 [1-ethyl-3-methylimidazolium ethyl sulfate]
1241

Now try CCn1cc[n+](C)c1.O=S(=O)([O-])O [1-ethyl-3-methylimidazolium hydrogen sulfate] .
1370.5

Now try CCCCn1cc[n+](C)c1.O=S(=O)([N-]S(=O)(=O)C(F)(F)C(F)(F)C(F)(F)C(F)(F)F)C(F)(F)C(F)(F)C(F)(F)C(F)(F)F .
1617.3

Now try CCn1cc[n+](C)c1.N#CN=C=[N-] [1-ethyl-3-methylimidazolium dicyanamide] .
1104.6

Now try CCn1cc[n+](C)c1.CS(=O)(=O)[O-] [1-ethyl-3-methylimidazolium methanesulfonate] .
1245

Now try CCn1cc[n+](C)c1.F[B-](F)(F)F [1-ethyl-3-methylimidazolium tetrafluoroborate] .
1284.3
